Experiment: Dog pharmacokinetic study, single oral HM04 fumarate salt 3, 10, 30 mg/kg (Example 10)
Type: in vivo, male Beagle dogs
Details: male, Beagle, plasma, iv, 3 mg/kg, Dog 4, 3 mg/kg intravenous, read-out: individual IV AUC∞
attribute.measured: AUC(0-inf)

get_value(item= CN1CCC(N(C)C(=O)N[C@H](c2ccc(-c3cnccn3)c(Cl)c2Cl)C(F)(F)F)CC1.O=C(O)/C=C/C(=O)O [HM04 fumarate salt] , readout=AUC(0-inf)) returns 3070 ng·h/mL

* * *

Test: Rat pharmacokinetic study, single oral HM04 fumarate salt 3, 10, 30 mg/kg (Example 10)
Type: in vivo, male Sprague Dawley rats
Details: male, Sprague Dawley, plasma, 3 mg/kg oral, n=4
attribute.measured: AUC(0-t)

get_value(item= CN1CCC(N(C)C(=O)N[C@H](c2ccc(-c3cnccn3)c(Cl)c2Cl)C(F)(F)F)CC1.O=C(O)/C=C/C(=O)O [HM04 fumarate salt] , readout=AUC(0-t)) returns 762 ng·h/mL

* * *

Experiment: Rat pharmacokinetic study, single oral HM04 fumarate salt 3, 10, 30 mg/kg (Example 10)
Type: in vivo, male Sprague Dawley rats
Details: male, Sprague Dawley, plasma, 30 mg/kg oral, 4 hours, n=4
attribute.measured: concentration at 4 h (ng/mL)
Give bare numbers, in ng/mL.

get_value(item= CN1CCC(N(C)C(=O)N[C@H](c2ccc(-c3cnccn3)c(Cl)c2Cl)C(F)(F)F)CC1.O=C(O)/C=C/C(=O)O [HM04 fumarate salt] , readout=concentration at 4 h) returns 2120

* * *

Assay: Rat pharmacokinetic study, single oral HM04 fumarate salt 3, 10, 30 mg/kg (Example 10)
Assay type: in vivo, male Sprague Dawley rats
Details: male, Sprague Dawley, plasma, 10 mg/kg oral, 0.25 hours, n=4
attribute.measured: concentration at 0.25 h
Kindly format the answer as number then unit.

get_value(item= CN1CCC(N(C)C(=O)N[C@H](c2ccc(-c3cnccn3)c(Cl)c2Cl)C(F)(F)F)CC1.O=C(O)/C=C/C(=O)O [HM04 fumarate salt] , readout=concentration at 0.25 h) returns 150 ng/mL

* * *

Assay: Rat pharmacokinetic study, single oral HM04 fumarate salt 3, 10, 30 mg/kg (Example 10)
Type: in vivo, male Sprague Dawley rats
Conditions: male, Sprague Dawley, plasma, 30 mg/kg oral, 8 hours, n=4
attribute.measured: concentration at 8 h (ng/mL)
Numbers only, in ng/mL.

get_value(item= CN1CCC(N(C)C(=O)N[C@H](c2ccc(-c3cnccn3)c(Cl)c2Cl)C(F)(F)F)CC1.O=C(O)/C=C/C(=O)O [HM04 fumarate salt] , readout=concentration at 8 h) returns 1350

* * *

Assay: Dog pharmacokinetic study, single oral HM04 fumarate salt 3, 10, 30 mg/kg (Example 10)
Format: in vivo, male Beagle dogs
Conditions: male, Beagle, plasma, 3 mg/kg oral, 1 hour, n=4
attribute.measured: concentration at 1 h (ng/mL)
Numbers only, in ng/mL.

get_value(item= CN1CCC(N(C)C(=O)N[C@H](c2ccc(-c3cnccn3)c(Cl)c2Cl)C(F)(F)F)CC1.O=C(O)/C=C/C(=O)O [HM04 fumarate salt] , readout=concentration at 1 h) returns 300

* * *

Test: Dog pharmacokinetic study, single oral HM04 fumarate salt 3, 10, 30 mg/kg (Example 10)
Type: in vivo, male Beagle dogs
Settings: male, Beagle, plasma, iv, 3 mg/kg, Dog 3, 3 mg/kg intravenous, read-out: individual IV AUC∞
attribute.measured: AUC(0-inf) (µg·h/mL)
Numbers only, in µg·h/mL.

get_value(item= CN1CCC(N(C)C(=O)N[C@H](c2ccc(-c3cnccn3)c(Cl)c2Cl)C(F)(F)F)CC1.O=C(O)/C=C/C(=O)O [HM04 fumarate salt] , readout=AUC(0-inf)) returns 3.21

# credit: patent US11299472B2
